system: MDA-MB-468 breast; experiment: NCI tumour cell line growth inhibition, 48 h; in the data active means GI50 below about 0.43 µM; inactive means the rest
Pick one and only one: active, inactive

A selection of reference data follows.
# input Any idea what this test logged for CC1(C)[C@@H](OC(N)=O)[C@H]2O[C@H]2[C@]2(CO)[C@H]3CC[C@]4(C)[C@@H](c5ccc(=O)oc5)[C@@H](Cl)C[C@]4(O)C3=CC[C@@H]12 ?
# output active

# input Outcome logged for O=c1nc2oc3ccc4ccccc4c3cc-2s1 in this assay:
# output inactive

# input Answer briefly: the call reported for COc1cc(C2c3cc4c(cc3OC(NNC(N)=O)C2C)OCO4)cc(OC)c1O (centres undefined) in this assay.
# output inactive

// next entry
# input Recorded test outcome, item O=C(Nc1ccc(Cl)cc1)Nc1ccc(Nc2nncc3ccccc23)cc1
# output inactive

---

tested on: NCI-H460 lung; test: NCI tumour cell line growth inhibition, 48 h
Below, each of the compounds is paired with its reported TGI value.
Number in µM, nothing else.

get_value(item= CCCn1c(=O)c2[nH]c(-c3ccc(OCc4nc5ccc(F)cc5[nH]4)cc3)nc2n(CCC)c1=O , readout=TGI) returns 32.3

Recorded result, COc1ccc2[nH]cc(-c3cc(N)n4nc(-c5c[nH]c6ccccc56)cc4n3)c2c1 , TGI: 7.59

***
Measured TGI, O=C(COc1ccc(NC(=O)Nc2ccc(Cl)cc2)cc1)N=Nc1c(O)[nH]c2ccc([N+](=O)[O-])cc12 : 33.9

---

The following compounds are shown together with reported TGI values.
tested on: MDA-MB-468 breast; test: NCI tumour cell line growth inhibition, 48 h
Supply the numeric figure in µM, leaving out any unit text.

Field: example entries. Status: answers known.
Per the record, Cc1ccc(CNc2c3ccccc3nc3cc(NC(=O)CCN4CCCC4)ccc23)cc1 has TGI of 1.63

Sample COC(=O)c1cc2ccc(OC(C)=O)c(OC(C)=O)c2cn1 ; TGI observed: 33.5

Short answer for CC(C)(O)CC(=O)NCCn1ccc2ncnc(Nc3ccc(Oc4cccc(C(F)(F)F)c4)c(Cl)c3)c21 : TGI was 4.06

Notebook: O=[N+]([O-])c1cccc([As]=[As]c2cccc([N+](=O)[O-])c2)c1 (stereo unspecified) , TGI read as 0.194

GET /value?item= O=C(Nc1cccc(NC(=O)Nc2cc(C(F)(F)F)ccc2Cl)c1)Nc1cc(C(F)(F)F)ccc1Cl &field=TGI returns 7.24

Continuing:
O=C(/C=C/c1ccc([N+](=O)[O-])cc1)c1ccc2c3c(cccc13)CC2 has a reported TGI of 19.3

In plain terms, O=C(Nc1ccc(Cl)cc1)Nc1ccc(Nc2nncc3ccccc23)cc1 has a documented TGI of 9.47

---

system: MALME-3M melanoma; assay: NCI tumour cell line growth inhibition, 48 h
Reported TGI is given for each of the following molecules.
All answers are understood in µM, so give the number only.

# TGI of O=C(COc1ccc(NC(=O)Nc2ccc(Cl)cc2)cc1)N=Nc1c(O)[nH]c2ccc([N+](=O)[O-])cc12 = 8.74

Record CCCn1c(=O)c2[nH]c(-c3ccc(OCc4nc5ccc(F)cc5[nH]4)cc3)nc2n(CCC)c1=O . Reported TGI: 38.7

As a next step, examine the molecule that follows.
COc1ccc2[nH]cc(-c3cc(N)n4nc(-c5c[nH]c6ccccc56)cc4n3)c2c1 has a reported TGI of 3.07

---

system: MDA-MB-468 breast; assay: NCI tumour cell line growth inhibition, 48 h
Measured TGI accompanies every entry in the list below.

Worked cases, answers included:
Please fill in: TGI reported for Cn1cc(C2=C(c3cccc(OCC(O)CO)c3)C(=O)NC2=O)c2ccccc21 (centres undefined) = > 25 µM

The value of TGI measured for the compound O=C(NC[C@H](O)CO)c1ccncc1Nc1ccc(I)cc1F turned out to be > 66 µM

Consider CCOc1ccccc1N=Nc1c(C)[nH]n(-c2nc(-c3ccccc3)cs2)c1=O . Its measured TGI is > 100 µM

Attention now turns to another entry.
Quick note, TGI for COc1cccc(-n2ncc3c(N/N=C/c4ccncc4)ncnc32)c1 landed at > 25 µM
